Target: Adenine DNA glycosylase (Homo sapiens) (UniProt Q9UIF7);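 also: human MUTYH activity read as 594 nm fluorescence from cleavage and release of a quenched DNA duplex, coupled with APE1 for strand incision, lower signal meaning inhibition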
Sequence (Q9UIF7 whole entry): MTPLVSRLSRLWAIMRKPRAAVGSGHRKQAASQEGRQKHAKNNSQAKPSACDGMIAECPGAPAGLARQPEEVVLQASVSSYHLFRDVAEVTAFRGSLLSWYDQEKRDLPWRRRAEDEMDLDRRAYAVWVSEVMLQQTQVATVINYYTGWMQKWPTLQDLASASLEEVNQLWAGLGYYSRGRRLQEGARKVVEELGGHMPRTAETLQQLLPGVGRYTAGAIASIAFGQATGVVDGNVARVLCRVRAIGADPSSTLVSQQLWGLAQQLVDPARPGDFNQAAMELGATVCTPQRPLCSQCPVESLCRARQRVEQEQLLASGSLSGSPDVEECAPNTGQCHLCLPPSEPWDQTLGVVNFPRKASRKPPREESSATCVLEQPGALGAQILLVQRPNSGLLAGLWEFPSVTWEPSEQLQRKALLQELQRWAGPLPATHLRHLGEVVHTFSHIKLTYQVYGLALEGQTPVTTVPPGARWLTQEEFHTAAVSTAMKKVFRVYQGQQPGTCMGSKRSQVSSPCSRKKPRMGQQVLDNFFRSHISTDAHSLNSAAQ
Settings: Compound Concentration 10.0 uM, Hit No
Description: Inhibition of MUTYH by quantifying inhibition of MUTYH-mediated cleavage and dissociation of quenched duplex DNA oligonucleotides, measured as fluorescence at 594 nm. To generate a functional strand incision and increase turn-over this assay is coupled to APE1.
Reported values of inhibition for individual entries
Number in %, nothing else.

A selection of reference data follows.
Nc1nc(CC(=O)Nc2ccc(CCNC[C@H](O)c3ccccc3)cc2)cs1 : 7.21
CCOc1c2c(c(OCC)c3ncccc13)CN(c1ccc(CS(=O)(=O)NC(=O)Cc3ccccc3OC)cc1C)C2=O : 26.6
COc1cc2c(cc1CC=C(C)C)C(=O)C[C@@H](c1ccc(O)cc1)O2 : -5.24
CS(=O)(=O)Nc1c(O)ccc2c1CCCC2C1=NCCN1 (centres undefined) : 23.1
Cc1nccc(COC(=O)N2C[C@@H]3[C@@H](CNC(=O)c4ccc5[nH]nnc5c4)[C@@H]3C2)n1 : 10.4

In: I am curious: what inhibition value has been reported for Cc1nc(-c2ccc(C(F)(F)F)cc2)sc1COc1ccc([C@H](CC(=O)O)c2ccon2)cc1 ?
Out: 23.2

In: I am curious: what inhibition value has been reported for COc1ccc2[nH]cc(CCNC(C)=O)c2c1 ?
Out: 19.4

In: I am curious: what inhibition value has been reported for COc1ccccc1/C=N/NC(=O)COc1ccc(Cl)cc1C ?
Out: 10.8

In: I am curious: what inhibition value has been reported for CC#CC(=O)N1CCC[C@H]1c1nc(-c2ccc(C(=O)Nc3ccccn3)cc2)c2c(N)nccn12 ?
Out: 0.794

In: I am curious: what inhibition value has been reported for CC(C)(O)[C@H](F)CN1Cc2cc(NC(=O)c3cnn4cccnc34)c(N3CCOCC3)cc2C1=O ?
Out: -1.18

In: I am curious: what inhibition value has been reported for Nc1nc(NCc2ccccc2)nc(-c2ccccc2CO)n1 ?
Out: -3

In: I am curious: what inhibition value has been reported for COc1cc(Nc2ccnc3ccc(Br)cc23)cc(OC)c1OC ?
Out: 35

In: I am curious: what inhibition value has been reported for Cn1cc(C(=O)O)c2ccc(N3CCC(OCc4c(-c5c(Cl)cccc5Cl)noc4C4CC4)CC3)cc21 ?
Out: 2.96

In: I am curious: what inhibition value has been reported for C=CCN1C[C@H](C(=O)N(CCCN(C)C)C(=O)NCC)C[C@@H]2c3cccc4[nH]cc(c34)C[C@H]21 ?
Out: 1.81

In: I am curious: what inhibition value has been reported for O=C(O)Cc1cccc(OCCCN(Cc2cccc(C(F)(F)F)c2Cl)CC(c2ccccc2)c2ccccc2)c1 ?
Out: 2.57

In: I am curious: what inhibition value has been reported for C[C@@H]1CN(c2ncc(Cl)c(Nc3ccc4c(c3)n(CCC(C)(C)O)c(=O)n4C)n2)C[C@H](C)C1(F)F ?
Out: 2.19

In: I am curious: what inhibition value has been reported for CCOC(=O)N1CCC(c2cc(O)n3nc(C)c(-c4ccc(F)cc4)c3n2)CC1 ?
Out: 75.7

In: I am curious: what inhibition value has been reported for NCCc1c[nH]c2ccc(O)cc12 ?
Out: 2.2

In: I am curious: what inhibition value has been reported for O=c1ccn([C@@H]2O[C@H](COP(=O)(O)OP(=O)(O)O)[C@@H](O)[C@H]2O)c(=O)[nH]1 ?
Out: 23.4
